Listed next: entries and their corresponding self-cleavage kobs at 640 uM GlcN6P.
B1: glmS ribozyme (parent)
chain: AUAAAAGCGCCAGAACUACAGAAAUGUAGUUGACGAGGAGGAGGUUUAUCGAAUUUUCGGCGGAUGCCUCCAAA

variants of: B1; test: self-cleavage kobs at 640 uM GlcN6P; higher = faster cleavage; RNA array; settings: with glucosamine-6-phosphate
This sample holds only a part of the variants without activity.
reported_metric: self-cleavage kobs at 640 uM GlcN6P

>>> experimental_value("C16G A39G C71A")
"0.000265 s⁻¹"
>>> experimental_value("G41C G44A")
"< 1e-05 s⁻¹"
>>> experimental_value("C34G G37C")
"< 1e-05 s⁻¹"
>>> experimental_value("G9U A12G A14C A53C")
"< 1e-05 s⁻¹"
>>> experimental_value("C8U G13A U46A G51C G59A")
"< 1e-05 s⁻¹"
>>> experimental_value("G7U G13U A15U G40C G41A A52U")
"< 1e-05 s⁻¹"
>>> experimental_value("U47C C71U")
"0.00148 s⁻¹"
>>> experimental_value("U65A C68G")
"6.22e-05 s⁻¹"
>>> experimental_value("U55A G60C")
"< 1e-05 s⁻¹"
>>> experimental_value("G7A C10U G29A U30G")
"< 1e-05 s⁻¹"
>>> experimental_value("G40C G41C C68A")
"< 1e-05 s⁻¹"
>>> experimental_value("G13C G43C A48U")
"< 1e-05 s⁻¹"
>>> experimental_value("A12G G66C C68A")
"6.5e-05 s⁻¹"
>>> experimental_value("A14G G41C")
"0.00022 s⁻¹"
>>> experimental_value("A36U G63U")
"< 1e-05 s⁻¹"
>>> experimental_value("U31G C34U G59A")
"< 1e-05 s⁻¹"
>>> experimental_value("G29A A53G")
"0.000915 s⁻¹"
>>> experimental_value("A14U C67A")
"0.000406 s⁻¹"
>>> experimental_value("G35A G59C")
"< 1e-05 s⁻¹"
>>> experimental_value("U30A G41U G43U U54C")
"< 1e-05 s⁻¹"
>>> experimental_value("A15C G32A G38U")
"< 1e-05 s⁻¹"
>>> experimental_value("A39G U49A C68U")
"< 1e-05 s⁻¹"
>>> experimental_value("A15U U45G")
"0.000248 s⁻¹"
>>> experimental_value("A12U A33C G41U G62C")
"< 1e-05 s⁻¹"
>>> experimental_value("U31A A33G")
"< 1e-05 s⁻¹"
>>> experimental_value("G9U C11U U30G")
"< 1e-05 s⁻¹"

// provenance: the supplement of paper PMC7125110
